Reference for the values: ChEMBL document CHEMBL1123613

molecular target: Adrenergic receptor alpha-1 (Rattus norvegicus, UniProt P15823+P23944+P43140); experiment: Binding affinity against alpha-1-adrenoceptor in rat brain homogenates [3H]-prazosin displacement.; format: tissue-based
MEASURED_ENDPOINT: Ki

// query Look up and report measured Ki for this entry: COc1ccnc(N2CCN(c3nc(N)c4cc(OC)c(OC)cc4n3)CC2)n1
// result 0.19 nM

// query Supply measured Ki of COc1cc2nc(N3CCN(c4cccnn4)CC3)nc(N)c2cc1OC in your reply.
// result 0.4 nM

// query Return value of Ki for input COc1nc(OC)nc(N2CCN(c3nc(N)c4cc(OC)c(OC)cc4n3)CC2)n1 , no commentary.
// result 0.08 nM

// query Specify measured Ki for COc1cc2nc(N3CCN(c4ccnc(N5CCOCC5)n4)CC3)nc(N)c2cc1OC .
// result 0.31 nM

// query Return the recorded Ki value; entry: COc1cc2nc(N3CCN(c4ccncn4)CC3)nc(N)c2cc1OC
// result 0.27 nM

// query // fetch Ki given entry COc1cc2nc(N3CCN(c4nc(N)nc(N)n4)CC3)nc(N)c2cc1OC
// result 0.47 nM

// query Write down Ki measured for item COc1cc2nc(N3CCN(c4nccc(-c5ccccc5)n4)CC3)nc(N)c2cc1OC
// result 1.66 nM

// query Identify the reported Ki for the following entry. COc1cc2nc(N3CCN(c4ncccn4)CC3)nc(N)c2cc1OC
// result 0.26 nM

// query Look up and report measured Ki for this entry: COc1cc(N2CCN(c3nc(N)c4cc(OC)c(OC)cc4n3)CC2)nc(OC)n1
// result 0.16 nM

// query Check the records and state Ki for COc1cc2nc(N3CCN(c4cnccn4)CC3)nc(N)c2cc1OC
// result 0.18 nM

// query Give me measured Ki, please, for this compound: COc1cc2nc(N3CCN(c4ccnc(Oc5ccccc5)n4)CC3)nc(N)c2cc1OC
// result 0.24 nM

// query Give Ki for COc1cc2nc(N3CCN(c4nccc(N(C)C)n4)CC3)nc(N)c2cc1OC
// result 0.27 nM

// query For the compound COc1cc2nc(N3CCN(c4cc(OC(C)C)ncn4)CC3)nc(N)c2cc1OC , report Ki.
// result 0.18 nM

// query For the compound COc1cc2nc(N3CCN(c4ccc(OC(C)C)nn4)CC3)nc(N)c2cc1OC , give its measured Ki value.
// result 0.29 nM

// query Please indicate Ki recorded for COc1cc2nc(N3CCN(c4nc(Oc5ccccc5)nc(Oc5ccccc5)n4)CC3)nc(N)c2cc1OC
// result 0.87 nM

// query Find the measured Ki of CCCOc1ccnc(N2CCN(c3nc(N)c4cc(OC)c(OC)cc4n3)CC2)n1 and report it.
// result 0.32 nM

// query Give the value of Ki reported for the following: CCCOc1cc(N2CCN(c3nc(N)c4cc(OC)c(OC)cc4n3)CC2)ncn1
// result 0.36 nM

// query Check the records and state Ki for COc1cc2nc(N3CCN(c4nccc(C)n4)CC3)nc(N)c2cc1OC
// result 0.92 nM

====

test system: Rattus norvegicus; test: Antihypertensive activity was determined by percent reduction in blood pressure after 1 hr upon peroral administration of 5 mg/kg dose in spontaneously hypertensive rats(SHR).; assay type: functional; conditions: route oral
Ranges used to classify Reduction: lowest = under 20%, middle = from 20% up to 30%, highest = 30% and over

// query Determine which band this compound sits in: COc1cc2nc(N3CCN(c4ccc(OC(C)C)nn4)CC3)nc(N)c2cc1OC
// result highest

// query Class? Entry: COc1cc(N2CCN(c3nc(N)c4cc(OC)c(OC)cc4n3)CC2)nc(OC)n1
// result middle

// query Assign a bin to COc1ccnc(N2CCN(c3nc(N)c4cc(OC)c(OC)cc4n3)CC2)n1
// result lowest

// query # bin label for COc1cc2nc(N3CCN(c4nccc(C)n4)CC3)nc(N)c2cc1OC
// result middle

// query Which bin should I file CCCOc1cc(N2CCN(c3nc(N)c4cc(OC)c(OC)cc4n3)CC2)ncn1 under?
// result highest

// query Consider COc1cc2nc(N3CCN(c4ccnc(Oc5ccccc5)n4)CC3)nc(N)c2cc1OC . To which Reduction class does it belong?
// result lowest

// query // bin(item) where item = COc1cc2nc(N3CCN(c4nccc(-c5ccccc5)n4)CC3)nc(N)c2cc1OC
// result lowest

// query Lab log: CCCOc1ccnc(N2CCN(c3nc(N)c4cc(OC)c(OC)cc4n3)CC2)n1 — assign Reduction category
// result highest

// query Which class holds COc1cc2nc(N3CCN(C(=O)c4ccco4)CC3)nc(N)c2cc1OC [PRAZOSIN] ?
// result highest

// query Could you place COc1cc2nc(N3CCN(c4ncccn4)CC3)nc(N)c2cc1OC in its proper category? Many thanks.
// result highest

// query Please report the category associated with COc1cc2nc(N3CCN(c4cc(OC(C)C)ncn4)CC3)nc(N)c2cc1OC , nothing else.
// result highest

// query Sort into band: COc1cc2nc(N3CCN(c4cccnn4)CC3)nc(N)c2cc1OC
// result middle

// query Form: Item = COc1cc2nc(N3CCN(c4ccnc(N5CCOCC5)n4)CC3)nc(N)c2cc1OC ; Class = ?
// result lowest

// query Hello team, could you let me know which band the following compound falls into: COc1nc(OC)nc(N2CCN(c3nc(N)c4cc(OC)c(OC)cc4n3)CC2)n1
// result lowest

// query Class label required: COc1cc2nc(N3CCN(c4ccncn4)CC3)nc(N)c2cc1OC
// result middle
